molecules and their reported IC90
Biological target: APOL1 G1 (Homo sapiens, UniProt O14791, I384M/S342G)
Sequence (O14791 28-398 S342G/I384M): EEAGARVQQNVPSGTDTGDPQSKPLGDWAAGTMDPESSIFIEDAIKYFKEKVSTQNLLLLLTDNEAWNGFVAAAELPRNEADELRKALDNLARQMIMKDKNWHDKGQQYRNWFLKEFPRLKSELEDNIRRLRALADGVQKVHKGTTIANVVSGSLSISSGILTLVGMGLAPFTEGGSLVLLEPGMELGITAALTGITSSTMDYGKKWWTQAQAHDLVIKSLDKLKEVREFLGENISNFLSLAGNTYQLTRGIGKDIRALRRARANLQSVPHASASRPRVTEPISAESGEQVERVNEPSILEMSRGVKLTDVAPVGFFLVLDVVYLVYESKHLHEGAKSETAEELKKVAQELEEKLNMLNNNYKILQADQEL
Test: MultiTox-Fluor Multiplex Cytotoxicity Assay, tet-inducible APOL1 G1 T-REx-HEK293 cells
Type: cell-based
Parameters: expressed in transfected cells; host or cells: T-REx HEK293, clone G1 DC3.25 (pAAVS1-Puro-APOL1 G1)
Conditions: Multi-Tox Assay; APOL1 variant (G0/G1/G2) not stated in Table 46; read-out: Multi-Tox Assay IC90

Some molecules with recorded IC90:
C[C@H]1C[C@@]2(C[C@@H](C3(N)CC3)N1)OCCc1cc(Cl)sc12
0.05 to 0.5 µM
C[C@H]1C[C@@]2(C[C@@H](c3cn(CC4CCC(=O)NC4)nn3)N1)OCC(F)(F)c1cc(Cl)sc12 (stereo partly drawn)
> 0.5 µM
[2H][13C]([2H])([2H])n1cc([C@@H]2[13CH2][C@]3(C[C@H](C)N2)OC[C@@H](O)c2cc(C(F)(F)F)sc23)nn1
< 0.05 µM
Cn1cc(C2CC3(CC(C(F)F)N2)OCCc2cc(Cl)sc23)nn1 (stereo not drawn)
> 0.5 µM
C[C@H]1C[C@@]2(C[C@@H](c3cn(CC(C)(C)O)nn3)N1)OCC(F)(F)c1cc(Cl)sc12
> 0.5 µM
Cn1cc([C@@H]2C[C@]3(C[C@H](C4CC4)N2)OC[C@@H](O)c2cc(Cl)sc23)nn1
0.05 to 0.5 µM

## Input Note IC90 for the molecule shown: C[C@H]1C[C@@]2(C[C@@H](c3cn(C)nn3)N1)OC[C@@H](O)c1sc(C(F)(F)F)cc12
## Output < 0.05 µM

## Input Answer with the recorded IC90 for the molecule listed here: COC(=O)C1([C@@H]2C[C@]3(C[C@H](C)N2)OCCc2cc(Cl)sc23)CC1
## Output > 0.5 µM

## Input Return reported IC90. Input molecule: Cn1cc(C2CC3(CC(C(F)F)N2)OCCc2cc(C(F)(F)F)sc23)nn1 (stereo not drawn)
## Output > 0.5 µM

Data provenance: patent EP4810040A2
